The origin of these recorded values is BigSolDB 2.1.

# conditions_used: in 1,4-dioxane, 298.15 K
parameter_measured: solubility (mole fraction)
Numbers only.

State, in one line, measured solubility (mole fraction) of Cc1c(C(=O)O)cccc1[N+](=O)[O-]
0.112

----------
# conditions_used: in isopropyl acetate, 308.15 K
parameter_measured: solubility (mole fraction)
Answers are plain numbers.

In one line, give reported solubility (mole fraction) of the entry Cc1c(C(=O)O)cccc1[N+](=O)[O-] .
0.0361

----------
# conditions_used: in acetonitrile, 283.15 K
parameter_measured: solubility (mole fraction)
One number for each entry.

Return value of solubility (mole fraction) for input Cc1c(C(=O)O)cccc1[N+](=O)[O-] , no commentary.
0.00523

----------
# conditions_used: in n-propyl acetate, 288.15 K
parameter_measured: solubility (mole fraction)
One number for each entry.

Hello, please tell me recorded solubility (mole fraction) for this one: Cc1c(C(=O)O)cccc1[N+](=O)[O-]
0.0251

----------
# conditions_used: in DMF, 288.15 K
parameter_measured: solubility (mole fraction)
Numbers only.

Return solubility (mole fraction) (reported value) for this molecule: Cc1c(C(=O)O)cccc1[N+](=O)[O-]
0.191

----------
# conditions_used: in DMF, 303.15 K
parameter_measured: solubility (mole fraction)
Numbers only.

Respond only with solubility (mole fraction) recorded for Cc1c(C(=O)O)cccc1[N+](=O)[O-]
0.275

----------
# conditions_used: in n-butyl acetate, 293.15 K
parameter_measured: solubility (mole fraction)
Numbers only.

Using known records, supply solubility (mole fraction) for Cc1c(C(=O)O)cccc1[N+](=O)[O-]
0.0261

----------
# conditions_used: in methanol, 293.15 K
parameter_measured: solubility (mole fraction)
Answers are plain numbers.

Please give the documented solubility (mole fraction) of Cc1c(C(=O)O)cccc1[N+](=O)[O-]
0.0225

----------
# conditions_used: in n-butyl acetate, 313.15 K
parameter_measured: solubility (mole fraction)
Answers are plain numbers.

Read off the recorded solubility (mole fraction) for Cc1c(C(=O)O)cccc1[N+](=O)[O-]
0.0446

----------
# conditions_used: in n-propanol, 278.15 K
parameter_measured: solubility (mole fraction)

Provide only the value of recorded solubility (mole fraction) for Cc1c(C(=O)O)cccc1[N+](=O)[O-]
0.016

----------
# conditions_used: in DMF, 293.15 K
parameter_measured: solubility (mole fraction)

State, in one line, measured solubility (mole fraction) of Cc1c(C(=O)O)cccc1[N+](=O)[O-]
0.217

----------
# conditions_used: in isobutanol, 288.15 K
parameter_measured: solubility (mole fraction)

Give a short answer stating reported solubility (mole fraction) for Cc1c(C(=O)O)cccc1[N+](=O)[O-] .
0.014

----------
# conditions_used: in isopropanol, 303.15 K
parameter_measured: solubility (mole fraction)
Answers are plain numbers.

Quote solubility (mole fraction) reported for Cc1c(C(=O)O)cccc1[N+](=O)[O-] please.
0.0314

----------
# conditions_used: in ethyl acetate, 293.15 K
parameter_measured: solubility (mole fraction)
Numbers only.

Annotate the molecule Cc1c(C(=O)O)cccc1[N+](=O)[O-] with its measured solubility (mole fraction).
0.0336

----------
# conditions_used: in n-propyl acetate, 313.15 K
parameter_measured: solubility (mole fraction)
One number for each entry.

State its solubility (mole fraction): Cc1c(C(=O)O)cccc1[N+](=O)[O-]
0.049
